Listed here are compounds together with their documented IC50.
Molecular target: 3CLpro (Severe acute respiratory syndrome coronavirus 2, UniProt P0DTD1)
Experiment: SARS-CoV-2 3CLpro protease assay (duplex, SAMDI-MS)
Format: biochemical
Set-up: For the duplex assay, 3CLpro and HRV3C was added
Settings: 3CLpro, 30 mins preincubation, class symbols; read-out: SARS-Cov-2 IC50

compound	IC50
COc1cccc2[nH]c(C(=O)N3C[C@@H]4CCC[C@@H]4[C@H]3C(=O)NC(C[C@@H]3CCNC3=O)C(=O)C(N)=O)cc12 (stereo partly drawn)	20 to 200 nM
COc1cccc2[nH]c(C(=O)N3C[C@@H]4CCC[C@@H]4[C@H]3C(=O)N[C@@H](C[C@@H]3CCNC3=O)C(=O)C(=O)N[C@H]3CCOC3)cc12	20 to 200 nM
O=C1NCC[C@H]1C[C@H](NC(=O)[C@@H]1[C@H]2CCC[C@H]2CN1C(=O)c1ccc(-c2ccccc2)[nH]1)C(=O)CO	20 to 200 nM
